Measured values drawn from ChEMBL document CHEMBL4346690 for this set.

- ASSAY SUMMARY: Anti-neuroinflammatory activity in […] BV2 cells assessed as reduction in LPS-induced NO production preincubated for 3 hrs followed by LPS stimulation for 24 hrs by Griess assay
- Type: functional, cell-based
- EXPERIMENTAL CONDITIONS: BV-2
Please use Met for IC50 under 7 µM and Not met for everything else, ties included.

Determine if O=S(=O)(/C=C/c1ccc(O)c(O)c1)CC1CCC1 shows IC50 strictly lower than 7 µM.
Not met

Determine if C=CCCCCCCS(=O)(=O)/C=C/c1ccc(O)c(O)c1 shows IC50 strictly lower than 7 µM.
Not met

Determine if O=S(=O)(/C=C/c1ccc(O)c(O)c1)CC1CCCC1 shows IC50 strictly lower than 7 µM.
Not met

Determine if CCCCCCCCS(=O)(=O)/C=C/c1ccc(O)c(O)c1 shows IC50 strictly lower than 7 µM.
Not met

Determine if O=S(=O)(/C=C/c1ccc(O)c(O)c1)CCCc1ccccc1 shows IC50 strictly lower than 7 µM.
Not met

Determine if CCCCCCS(=O)(=O)/C=C/c1ccc(O)c(O)c1 shows IC50 strictly lower than 7 µM.
Met

Determine if O=S(=O)(/C=C/c1ccc(O)c(O)c1)CC1CCCCC1 shows IC50 strictly lower than 7 µM.
Met

Determine if O=S(=O)(/C=C/c1ccc(O)c(O)c1)CCC1CCCC1 shows IC50 strictly lower than 7 µM.
Met

Determine if O=S(=O)(/C=C/c1ccc(O)c(O)c1)CCCCCCCCCO shows IC50 strictly lower than 7 µM.
Not met

Determine if CCCCCCCCCCS(=O)(=O)/C=C/c1ccc(O)c(O)c1 shows IC50 strictly lower than 7 µM.
Not met

====

Consider the following compounds; for each one, report its viability at 24 h, up to 40 µM.
- ASSAY SUMMARY: Cytotoxicity against […] BV2 cells assessed as cell viability at 0.625 to 40 uM after 24 hrs by MTS assay
- Format: cell-based
- EXPERIMENTAL CONDITIONS: read-out: Activity

Sure, the documented viability at 24 h, up to 40 µM for O=S(=O)(/C=C/c1ccc(O)c(O)c1)CC1CCC1 is > 90%

Sure, the documented viability at 24 h, up to 40 µM for O=S(=O)(/C=C/c1ccc(O)c(O)c1)CCCC1CCCC1 is > 90%

Sure, the documented viability at 24 h, up to 40 µM for O=S(=O)(/C=C/c1ccc(O)c(O)c1)CC1CC1 is > 90%

Sure, the documented viability at 24 h, up to 40 µM for CC(C)(C)OC(=O)N1CCCC1CS(=O)(=O)/C=C/c1ccc(O)c(O)c1 (stereo not drawn) is > 90%

Sure, the documented viability at 24 h, up to 40 µM for CCCCCCCCCCS(=O)(=O)/C=C/c1ccc(O)c(O)c1 is > 90%

Sure, the documented viability at 24 h, up to 40 µM for C=CCCCCCS(=O)(=O)/C=C/c1ccc(O)c(O)c1 is > 90%

Sure, the documented viability at 24 h, up to 40 µM for O=S(=O)(/C=C/c1ccc(O)c(O)c1)CCCCCCCCCO is > 90%

Sure, the documented viability at 24 h, up to 40 µM for CCCCCCCCCS(=O)(=O)/C=C/c1ccc(O)c(O)c1 is > 90%

Sure, the documented viability at 24 h, up to 40 µM for O=S(=O)(/C=C/c1ccc(O)c(O)c1)CC1CCCN1 (stereo not drawn) is > 90%

Sure, the documented viability at 24 h, up to 40 µM for CCCCCCCCCCCCS(=O)(=O)/C=C/c1ccc(O)c(O)c1 is > 90%

Sure, the documented viability at 24 h, up to 40 µM for O=S(=O)(/C=C/c1ccc(O)c(O)c1)CCCCCCCO is > 90%

Sure, the documented viability at 24 h, up to 40 µM for O=S(=O)(/C=C/c1ccc(O)c(O)c1)CC1CCCC1 is > 90%

Sure, the documented viability at 24 h, up to 40 µM for O=S(=O)(/C=C/c1ccc(O)c(O)c1)CC1CCCCC1 is > 90%

Sure, the documented viability at 24 h, up to 40 µM for CCCCCCCCS(=O)(=O)/C=C/c1ccc(O)c(O)c1 is > 90%

Sure, the documented viability at 24 h, up to 40 µM for O=S(=O)(/C=C/c1ccc(O)c(O)c1)CCC1CCCC1 is > 90%

Sure, the documented viability at 24 h, up to 40 µM for O=S(=O)(/C=C/c1ccc(O)c(O)c1)CC1CCCO1 (stereo not drawn) is > 90%

Sure, the documented viability at 24 h, up to 40 µM for O=S(=O)(/C=C/c1ccc(O)c(O)c1)CCCCCCCCO is > 90%

Sure, the documented viability at 24 h, up to 40 µM for O=S(=O)(/C=C/c1ccc(O)c(O)c1)CCC1CCCCC1 is > 90%
